The values you see were collected from PubChem BioAssay AID1159580.

- assay.comment: chemical genetic growth profiling, strain panel (AID 1159580);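 also: tested at 20 µM; growth read once vehicle control cultures reached saturation at 30 °C; 1 = growth at the plate median or of vehicle wells; lower values mean less growth of the strain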
- experimental.setup: S. cerevisiae deletion strains, growth OD, locus YMR223W, strain ubp8, hits give low values
About 2,000 (36%) of roughly 5,500 compounds were called active. Inconclusive results (about 18%) are left out. The list shows a part of the results.
quantity.kind: normalized growth
Respond using a number only.

Some compounds with recorded normalized growth:
compound | normalized growth
CC(=O)O[C@H]1C[C@@]2(C)[C@H](c3ccoc3)OC(=O)[C@H]3O[C@]32[C@@]2(C)C1[C@]1(C)C(C[C@H]2OC(C)=O)C(C)(C)[C@H](OC(C)=O)C[C@@H]1OC(C)=O (stereo partly drawn) | 0.991
CNCCC=C1c2ccccc2CCc2ccccc21 | 0.989
CN(C)CCC=C1c2ccccc2CCc2ccccc21 | 1
CN(C)CC/C=C1/c2ccccc2COc2ccccc21 | 1.03
CC(=O)O[C@@H]1CC2C(C)(C)[C@H](O)C[C@H](O)[C@]2(C)C2CC[C@@]3(C)[C@H](c4ccoc4)OC(=O)[C@H]4O[C@]43[C@@]21C (stereo partly drawn) | 1
CN(C)CCC=C1c2ccccc2C=Cc2ccccc21 | 0.951
CC(=O)OC1CC2C(C)(C)CCCC2(C)C2CCC3(C)C(c4ccoc4)OC(=O)C4OC43C12C (stereo not drawn) | 1

Req: Reported normalized growth, compound CC(=O)O[C@H]1C[C@@H](O)C(C)(C)C2C[C@@H](OC(C)=O)[C@]3(C)C(CC[C@@]4(C)[C@H](c5ccoc5)OC(=O)C5OC543)[C@]21C (stereo partly drawn) : ____
Resp: 0.991

* * *

- assay.comment: chemical genetic growth profiling, strain panel (AID 1159580)
- experimental.setup: S. cerevisiae deletion strains, growth OD, locus YLR342W, strain FKS1, hits give low values
About 2,000 (36%) of roughly 5,500 compounds were called active. About 18% were inconclusive and are not listed. The list shows a part of the results.
quantity.kind: normalized growth
Respond using a number only.

Some compounds with recorded normalized growth:
compound | normalized growth
CC(=O)O[C@H]1C[C@H](O[C@H]2[C@@H](O)C[C@H](O[C@H]3[C@@H](O)C[C@H](O[C@H]4CC[C@@]5(C)C(CCC6C5C[C@@H](O)[C@]5(C)[C@@H](C7=CC(=O)OC7)CC[C@]65O)C4)O[C@@H]3C)O[C@@H]2C)O[C@H](C)[C@H]1O[C@@H]1O[C@H](CO)[C@@H](O)[C@H](O)[C@H]1O (some centres not stated) | 1
CN(N=O)C(=O)N[C@@H]1[C@@H](O)[C@H](O)[C@@H](CO)O[C@@H]1O | 1.01
CC(C)=CCc1c2c(c(O)c3c(=O)c(O)c(-c4ccccc4)oc13)C=CC(C)(C)O2 | 0.514
CC(C)(Oc1ccc(Cl)cc1)C(=O)O | 1.03

Req: Reported normalized growth, compound C=C1C2CC[C@@]3(C)[C@H](c4ccoc4)OC(=O)C[C@]13O[C@H]1CC(=O)C(C)(C)[C@H](C(O)C(=O)OC)[C@@]21C (some centres not stated) : ____
Resp: 0.99

Req: // repeat for CC[N+]1(C)CCCC(OC(=O)C(O)(c2ccccc2)c2ccccc2)C1 (configuration not stated) and report
Resp: 1.03

Req: // repeat for Nc1nc(N)c2nc(-c3ccccc3)c(N)nc2n1 and report
Resp: 0.996

* * *

- assay.comment: chemical genetic growth profiling, strain panel (AID 1159580)
- experimental.setup: S. cerevisiae deletion strains, growth OD, locus YPR167C, strain met16, hits give low values
Among all 5,500 compounds or so, about 2,000 (36%) were called active. Inconclusive results (about 18%) are left out. The list shows a part of the results.
normalized growth values for the molecules below.
Respond using a number only.

molecule | quantity.kind | test.result
CN1CCOC(c2ccccc2)c2ccccc2C1 (stereo unspecified) | normalized growth | 1.02
COc1cc([C@@H]2c3cc4c(cc3[C@H](OC(C)=O)[C@H]3COC(=O)[C@H]23)OCO4)cc(OC)c1OC | normalized growth | 0.969
COc1c(O)cccc1O | normalized growth | 1.04

Req: Reported normalized growth, molecule COc1c(O)cc2c(-c3ccccc3)cc(=O)oc2c1OC : ____
Resp: 0.968

Req: // repeat for CC(=O)Oc1c(-c2ccccc2)oc2c(CC=C(C)C)c3c(c(OC(C)=O)c2c1=O)C=CC(C)(C)O3 and report
Resp: 1

Req: // repeat for CN1CCc2c(c3ccccc3n2Cc2ccccc2)C1 and report
Resp: 1

Req: // repeat for CC1(C)O[C@@H]2CC3C4CCC5=CC(=O)C=C[C@]5(C)[C@@]4(F)[C@@H](O)C[C@]3(C)[C@]2(C(=O)CO)O1 (stereo partly specified) and report
Resp: 0.997

Req: // repeat for CC(=O)Nc1ccc(O)cc1 and report
Resp: 0.972

Req: // repeat for COc1cccc2c1cc([N+](=O)[O-])c1c(C(=O)O)cc3c(c12)OCO3 and report
Resp: 1.02

Req: // repeat for CC(=O)N(O)CCCCCNC(=O)CCC(=O)N(O)CCCCCNC(=O)CCC(=O)N(O)CCCCCN and report
Resp: 1.04

Req: // repeat for C=CCc1ccccc1OCC(O)CNC(C)C (stereo unspecified) and report
Resp: 1.01

* * *

- assay.comment: chemical genetic growth profiling, strain panel (AID 1159580);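 also: tested at 20 µM; growth read once vehicle control cultures reached saturation at 30 °C; 1 = growth at the plate median or of vehicle wells; lower values mean less growth of the strain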
- experimental.setup: S. cerevisiae deletion strains, growth OD, locus YNL222W, strain SSU72, hits give low values
Screen size: about 5,500 compounds; about 2,000 (36%) were called active. About 18% were inconclusive and are not listed. Some of the results follow.
quantity.kind: normalized growth
Respond using a number only.

smiles.input | test.result
O=C(NCc1cccs1)c1csc(Cc2c(Cl)cccc2Cl)n1 | 0.983
Cc1ccc(C(=O)O/N=C(/N)CSc2ncccc2C(F)(F)F)cc1 | 1
Cc1cc(C(=O)O/N=C(/N)CSc2ncccc2C(F)(F)F)no1 | 0.978

Req: Reported normalized growth, molecule Cc1ccc(C(O)(c2ccccc2)c2ccccc2)c2ccccc12 : ____
Resp: 0.983

Req: // repeat for CC(C)(C)c1csc(NC(=O)Nc2ccc(Cl)cc2)n1 and report
Resp: 0.983

Req: // repeat for O=C(NNC(=O)c1csc(-c2cccs2)n1)c1ccc(C(F)(F)F)cc1 and report
Resp: 0.963

Req: // repeat for Clc1ccc(-c2csc(Nc3ccccc3)n2)s1 and report
Resp: 0.931

Req: // repeat for CC(C)(C)c1csc(NNC(=O)c2ccc(Cl)cc2)n1 and report
Resp: 0.963

Req: // repeat for N=c1ccc2nc3c(Cl)c4c(c(Cl)c3oc-2c1S(=O)(=O)O)Nc1ccc(N)c(S(=O)(=O)O)c1O4 and report
Resp: 1.01

Req: // repeat for CN(C(=O)N(C)c1ccc(Cl)cc1C(=O)c1ccccc1Cl)c1ccc(Cl)cc1C(=O)c1ccccc1Cl and report
Resp: 0.846

Req: // repeat for C#Cc1cccc(N=Cc2cc(Cl)cc(Br)c2O)c1 and report
Resp: 0.095

* * *

- assay.comment: chemical genetic growth profiling, strain panel (AID 1159580);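 also: tested at 20 µM; growth read once vehicle control cultures reached saturation at 30 °C; 1 = growth at the plate median or of vehicle wells; lower values mean less growth of the strain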
- experimental.setup: S. cerevisiae deletion strains, growth OD, locus YEL061C, strain CIN8, hits give low values
Out of some 5,500 compounds screened, about 2,000 (36%) were called active. Not shown: some 18% with an inconclusive outcome. The list shows a part of the results.
quantity.kind: normalized growth
Respond using a number only.

Some molecules with recorded normalized growth:
molecule | normalized growth
C#CCOS(=O)OC1CCCCC1Oc1ccc(C(C)(C)C)cc1 (centres undefined) | 1.01
CCN(CC)CCNc1ccc(CO)c2sc3ccccc3c(=O)c12 | 0.999

Req: Reported normalized growth, molecule O=C1c2c(O)ccc(O)c2C(=O)c2c(NCCNCCO)ccc(NCCNCCO)c21 : ____
Resp: 1.02

Req: // repeat for COc1cc([C@@H]2c3cc4c(cc3[C@H](OC(C)=O)[C@H]3COC(=O)[C@H]23)OCO4)cc(OC)c1OC and report
Resp: 1

* * *

- assay.comment: chemical genetic growth profiling, strain panel (AID 1159580);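 also: tested at 20 µM; growth read once vehicle control cultures reached saturation at 30 °C; 1 = growth at the plate median or of vehicle wells; lower values mean less growth of the strain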
- experimental.setup: S. cerevisiae deletion strains, growth OD, locus YNL209W, strain ssb2
The whole screen tested about 5,500 compounds, of which about 2,000 (36%) were called active. Another 18% or so got no clear call; they are omitted. No stated cut-off is given here; in the data, active means normalized growth mostly below about 0.91 (no sharp cut-off); inconclusive means no clear call, values can overlap the other calls; inactive means mostly above about 0.92. Some of the results follow.
Mark one answer only. Choices: true for active, false for inactive

// below: answered compounds
compound | group.label
COc1cccc2c1cc([N+](=O)[O-])c1c(C(=O)O)cc3c(c12)OCO3 | false
CCCCOc1cc(CC2CNC(=O)N2)ccc1OC (stereo unspecified) | false
COc1cc([C@@H]2c3cc4c(cc3[C@H](OC(C)=O)[C@H]3COC(=O)[C@H]23)OCO4)cc(OC)c1OC | false
[N-]=[N+]=CC(=O)OCC(N)C(=O)O (stereo unspecified) | false
CCCCCCCCCCCCCCCC[n+]1ccccc1 | true

Req: State the result this test recorded for COc1ccc(-c2cc(=O)c3c(OC(C)=O)cc(OC(C)=O)cc3o2)cc1 .
Resp: false
